Quick reference: IC50 of the listed items.
Tested on: Human immunodeficiency virus 1
Assay: Antiviral activity against X4 tropic HIV1 HXB2 assessed as inhibition of single cycle viral infection in human TZM-bl cells preincubated for 30 mins followed by addition of cells measured after 3 days by luciferase reporter gene assay
Type: functional, cell-based
Conditions: Human immunodeficiency virus 1, HXB2, TZM-bl
Provide only the numeric value, understood in µM.

Use these answered entries as a reference point.
structure-string	IC50 [µM]
Cc1nc([C@H](NC(=O)c2ccc(-c3ccc(Cl)c(F)c3)[nH]2)[C@@H]2CCCCN2)sc1CCO	8
Cc1ccc(-c2ccc(C(=O)N[C@H](CN)c3nc(C)c(CO)s3)[nH]2)cc1F	1.1
Cc1ccc(-c2ccc(C(=O)N[C@@H](c3nc(C)c(CCCO)s3)[C@@H]3CCCCN3)[nH]2)cc1F	7.9
Cc1ccc(-c2ccc(C(=O)N[C@@H](c3nc(C)c(CCO)s3)[C@@H]3CCCCN3)[nH]2)cc1F	6.3
Cc1ccc(-c2ccc(C(=O)N[C@@H](CN)c3nc(C)c(CO)s3)[nH]2)cc1F	1.7

Task item: Could you share which IC50 value was measured for Cc1ccc(-c2ccc(C(=O)N[C@@H](c3nc(C)c(CO)s3)[C@@H]3CCCCN3)[nH]2)cc1F ?
Reply: 3.8

Task item: Could you share which IC50 value was measured for Cc1ccc(-c2ccc(C(=O)N[C@H](c3nc(C)c(CCO)s3)[C@@H]3CCCCN3)[nH]2)cc1F ?
Reply: 10.6

Task item: Could you share which IC50 value was measured for Cc1nc([C@H](NC(=O)c2ccc(-c3ccc(Cl)cc3)[nH]2)[C@@H]2CCCCN2)sc1CCO ?
Reply: 5.7

----------
Tested on: Human immunodeficiency virus 1
Assay: Antiviral activity against X4 tropic HIV1 HXB2 assessed as inhibition of single cycle viral infection in human TZM-bl cells preincubated for 30 mins followed by addition of cells measured after 3 days by luciferase reporter gene assay
Assay type: functional, cell-based
Details: Human immunodeficiency virus 1, HXB2, TZM-bl
Quick reference: IC50 of the listed items.
Provide only the numeric value, understood in µM.

Use these answered entries as a reference point.
compound	units	measured-number
Cc1ccc(-c2ccc(C(=O)NC(c3nc(C)c(CO)[nH]3)C3CCCCN3)[nH]2)cc1F (stereo in doubt; 37A)	µM	9.4
Cc1nc([C@@H](NC(=O)c2ccc(-c3ccc(Cl)cc3)[nH]2)[C@@H]2CCCCN2)sc1CCO	µM	8.9

Task item: Could you share which IC50 value was measured for Cc1nc([C@@H](NC(=O)c2ccc(-c3ccc(Cl)c(F)c3)[nH]2)[C@H]2CCCCN2)sc1CO ?
Reply: 3

----------
Test: Cytotoxicity against human TZM-bl cells after 3 days by XTT assay
Format: toxicity, cell-based
Conditions: 72 h
Quick reference: CC50 of the listed items.
Provide only the numeric value, understood in µM.

Use these answered entries as a reference point.
compound	measured-number
Cc1ccc(-c2ccc(C(=O)N[C@H](c3nc(C)c(CCO)s3)[C@@H]3CCCCN3)[nH]2)cc1F	28.8
Cc1nc([C@H](NC(=O)c2ccc(-c3ccc(Cl)cc3)[nH]2)[C@@H]2CCCCN2)sc1CO	23.6
Cc1nc([C@H](NC(=O)c2ccc(-c3ccc(Cl)cc3)[nH]2)[C@@H]2CCCCN2)sc1CCCO	13.7
Cc1nc([C@@H](NC(=O)c2ccc(-c3ccc(Cl)c(F)c3)[nH]2)[C@@H]2CCCCN2)sc1CCO	16.1
Cc1nc([C@H](NC(=O)c2ccc(-c3ccc(Cl)c(F)c3)[nH]2)[C@H]2CCCCN2)sc1CO	17.4
Cc1ccc(-c2ccc(C(=O)NC(c3nc(C)c(CO)[nH]3)C3CCCCN3)[nH]2)cc1F (stereo in doubt; 37A)	33.3
Cc1nc(C(NC(=O)c2ccc(-c3ccc(Cl)cc3)[nH]2)C2CCCCN2)[nH]c1CO (stereo in doubt; 35A)	30
Cc1nc(C(NC(=O)c2ccc(-c3ccc(Cl)c(F)c3)[nH]2)C2CCCCN2)[nH]c1CO (stereo in doubt; 36B)	30.7

Task item: Could you share which CC50 value was measured for Cc1ccc(-c2ccc(C(=O)N[C@@H](c3nc(C)c(CCCO)s3)[C@@H]3CCCCN3)[nH]2)cc1F ?
Reply: 17

Task item: Could you share which CC50 value was measured for Cc1nc([C@@H](CN)NC(=O)c2ccc(-c3ccc(Cl)cc3)[nH]2)sc1CO ?
Reply: 34.1

Task item: Could you share which CC50 value was measured for Cc1nc([C@H](CN)NC(=O)c2ccc(-c3ccc(Cl)c(F)c3)[nH]2)sc1CO ?
Reply: 40.5

Task item: Could you share which CC50 value was measured for Cc1nc([C@H](NC(=O)c2ccc(-c3ccc(Cl)cc3)[nH]2)[C@@H]2CCCCN2)sc1CCO ?
Reply: 15.4

Task item: Could you share which CC50 value was measured for Cc1ccc(-c2ccc(C(=O)N[C@@H](c3nc(C)c(CO)s3)[C@@H]3CCCCN3)[nH]2)cc1F ?
Reply: 19.2

Task item: Could you share which CC50 value was measured for Cc1nc(C(NC(=O)c2ccc(-c3ccc(Cl)cc3)[nH]2)C2CCCCN2)[nH]c1CO (stereo in doubt; 35B) ?
Reply: 33.8

Task item: Could you share which CC50 value was measured for Cc1nc(C(NC(=O)c2ccc(-c3ccc(Cl)c(F)c3)[nH]2)C2CCCCN2)[nH]c1CO (stereo in doubt; 36A) ?
Reply: 26.7

Task item: Could you share which CC50 value was measured for Cc1nc([C@H](NC(=O)c2ccc(-c3ccc(Cl)c(F)c3)[nH]2)[C@@H]2CCCCN2)sc1CCO ?
Reply: 15.1

Task item: Could you share which CC50 value was measured for Cc1ccc(-c2ccc(C(=O)N[C@H](CN)c3nc(C)c(CO)s3)[nH]2)cc1F ?
Reply: 26.2

Task item: Could you share which CC50 value was measured for Cc1nc([C@H](NC(=O)c2ccc(-c3ccc(Cl)c(F)c3)[nH]2)[C@@H]2CCCCN2)sc1CCCO ?
Reply: 8.2

----------
Assay: Cytotoxicity against human MT2 cells after 4 days by XTT assay
Assay type: toxicity, cell-based
Conditions: mt2, 96 h
Quick reference: CC50 of the listed items.
Provide only the numeric value, understood in µM.

Use these answered entries as a reference point.
structure-string	CC50 / µM
Cc1nc([C@@H](CN)NC(=O)c2ccc(-c3ccc(Cl)cc3)[nH]2)sc1CO	28.2
Cc1ccc(-c2ccc(C(=O)N[C@H](c3nc(C)c(CO)s3)[C@@H]3CCCCN3)[nH]2)cc1F	16.1
Cc1nc([C@@H](NC(=O)c2ccc(-c3ccc(Cl)c(F)c3)[nH]2)[C@H]2CCCCN2)sc1CO	17.2
Cc1ccc(-c2ccc(C(=O)N[C@@H](c3nc(C)c(CO)s3)[C@@H]3CCCCN3)[nH]2)cc1F	28.2

Task item: Could you share which CC50 value was measured for Cc1ccc(-c2ccc(C(=O)N[C@@H](CN)c3nc(C)c(CO)s3)[nH]2)cc1F ?
Reply: 31.6

Task item: Could you share which CC50 value was measured for Cc1nc([C@H](NC(=O)c2ccc(-c3ccc(Cl)cc3)[nH]2)[C@@H]2CCCCN2)sc1CCO ?
Reply: 21

----------
Assay: Cytotoxicity against human TZM-bl cells after 3 days by XTT assay
Format: toxicity, cell-based
Details: 72 h
In plain terms, low CC50, meaning strictly below 30 µM, gives 1, and everything else gives -1.

Consider the following illustrative entries.
molecule	label-value
Cc1ccc(-c2ccc(C(=O)N[C@@H](CN)c3nc(C)c(CO)s3)[nH]2)cc1F	-1
Cc1ccc(-c2ccc(C(=O)NC(c3nc(C)c(CO)[nH]3)C3CCCCN3)[nH]2)cc1F (stereo in doubt; 37B)	-1
Cc1nc([C@H](CN)NC(=O)c2ccc(-c3ccc(Cl)cc3)[nH]2)sc1CO	-1
Cc1nc([C@@H](NC(=O)c2ccc(-c3ccc(Cl)cc3)[nH]2)[C@@H]2CCCCN2)sc1CCO	1
Cc1ccc(-c2ccc(C(=O)N[C@@H](c3nc(C)c(CCO)s3)[C@@H]3CCCCN3)[nH]2)cc1F	1

Task item: For this molecule, is CC50 lower than 30 µM? Cc1ccc(-c2ccc(C(=O)N[C@H](c3nc(C)c(CO)s3)[C@@H]3CCCCN3)[nH]2)cc1F
Reply: 1

Task item: For this molecule, is CC50 lower than 30 µM? Cc1nc([C@@H](NC(=O)c2ccc(-c3ccc(Cl)c(F)c3)[nH]2)[C@H]2CCCCN2)sc1CO
Reply: 1

Task item: For this molecule, is CC50 lower than 30 µM? Cc1nc([C@@H](CN)NC(=O)c2ccc(-c3ccc(Cl)c(F)c3)[nH]2)sc1CO
Reply: 1

// provenance: ChEMBL document CHEMBL3862013
